- TARGET_DESC: Menin (Homo sapiens)
- PROTOCOL_DESCRIPTION: Confirmation of Inhibitors Targeting the Menin-MLL Interaction in MLL Related Leukemias: Binding Confirmation with NMR Saturation Transfer Difference
- TEST_SETTINGS: recombinant menin
Inconclusive results are not listed. Activity calls are given as the source filed them.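 How the source made its calls: active means NMR saturation transfer binding signal to menin that a known MLL-derived binding peptide displaces; inconclusive means NMR binding signal present but the peptide does not displace it; inactive means no NMR binding signal.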
One label from this list, please: 1.0 (active), 0.0 (inactive)

Consider the worked cases shown below.
>  <COMPOUND>
O=C(CS)Nc1ccc2ccccc2c1

>  <CLASS_LABEL>
0.0

$$$$
>  <COMPOUND>
CC(=O)NC1C(=O)N(CCN2CCOCC2)c2ccc(Cl)cc21 (stereo unspecified)

>  <CLASS_LABEL>
0.0

$$$$
>  <COMPOUND>
CC(=O)NC1C(=O)N(CCN2CCOCC2)c2ccc(C)cc21 (stereo unspecified)

>  <CLASS_LABEL>
0.0

$$$$
>  <COMPOUND>
CCCC(c1nnnn1Cc1cccs1)N1CCN(C2CCCC2)CC1 (stereo unspecified)

>  <CLASS_LABEL>
1.0

$$$$
>  <COMPOUND>
COc1ccccc1C(=O)Nc1ccnn1C1CCN(CC2CC=CCC2)CC1 (stereo unspecified)

>  <CLASS_LABEL>
1.0

$$$$

IN: Returns: the outcome recorded for `C[C@H](NC(=O)c1cc2c(cn1)[nH]c1ccccc12)C(=O)O` in this assay.
OUT: 0.0

====

- TARGET_DESC: Menin (Homo sapiens) (UniProt O00255)
- Sequence (O00255 whole entry, looked up): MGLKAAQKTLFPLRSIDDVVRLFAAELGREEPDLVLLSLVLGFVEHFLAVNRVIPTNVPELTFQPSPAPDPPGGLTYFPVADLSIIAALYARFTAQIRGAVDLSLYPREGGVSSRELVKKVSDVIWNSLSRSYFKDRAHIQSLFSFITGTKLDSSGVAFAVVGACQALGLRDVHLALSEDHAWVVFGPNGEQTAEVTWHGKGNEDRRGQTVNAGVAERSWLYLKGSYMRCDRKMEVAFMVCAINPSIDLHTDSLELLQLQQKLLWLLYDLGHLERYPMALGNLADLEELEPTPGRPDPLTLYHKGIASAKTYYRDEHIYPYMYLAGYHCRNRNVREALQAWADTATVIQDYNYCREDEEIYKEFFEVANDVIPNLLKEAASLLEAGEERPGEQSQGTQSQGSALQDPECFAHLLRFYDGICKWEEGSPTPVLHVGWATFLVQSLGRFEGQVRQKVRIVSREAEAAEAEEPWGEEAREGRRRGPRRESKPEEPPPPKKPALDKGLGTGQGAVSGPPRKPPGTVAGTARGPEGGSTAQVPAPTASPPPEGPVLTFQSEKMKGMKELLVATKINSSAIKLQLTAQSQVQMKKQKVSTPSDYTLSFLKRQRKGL
- PROTOCOL_DESCRIPTION: Confirmation of Inhibitors Targeting the Menin-MLL Interaction in MLL Related Leukemias: Binding Confirmation with NMR Saturation Transfer Difference
- TEST_SETTINGS: recombinant menin
Inconclusive results are not listed. Active and inactive are the calls of the source.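 How the source made its calls: active means NMR saturation transfer binding signal to menin that a known MLL-derived binding peptide displaces; inconclusive means NMR binding signal present but the peptide does not displace it; inactive means no NMR binding signal.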
Choose one outcome from this list and give only that: True for active, False for inactive

Illustrative cases are given below, each with its answer.
>  <COMPOUND>
CCOc1ccc2c(c1)C(NC(C)=O)C(=O)N2CCN1CCOCC1 (stereo not given)

>  <CLASS_LABEL>
False

$$$$
>  <COMPOUND>
CCN(CC)Cc1cc2[nH]c3c4ccc(Cl)cc4ncc3c2cc1OC

>  <CLASS_LABEL>
False

$$$$
>  <COMPOUND>
CCc1ccc2c(c1)C(NC(C)=O)C(=O)N2CCN1CCOCC1 (stereo not given)

>  <CLASS_LABEL>
False

$$$$

IN: Per the assay record, what outcome was assigned to `Cc1sc2ncnc(NC3CCN(Cc4ccccc4)CC3)c2c1C` ?
OUT: True

IN: Moving on to the next compound: CCC(c1nnnn1Cc1ccc(F)cc1)N1CCN(C2CCCCC2)CC1 (stereo not given)
OUT: True
